// data source = ChEMBL document CHEMBL1201862

Tested on: OVCAR-3
methodNotes: NCI tumour cell line growth inhibition, 48 h
Active and inactive are the calls of the source. No stated cut-off is given here; in the data, active = GI50 up to about 1.1 µM and inactive = higher. Where a SMILES comes first, the peptide text is derived from it.
quantity: GI50

compound	targetOfAssay	quantity	result
COC(CC1(/C=C/O[Si](C(C)C)(C(C)C)C(C)C)C(=O)N(COCC[Si](C)(C)C)c2ccccc21)OC (stereo not drawn)	OVCAR-3	GI50	13.1 µM (inactive)
CCOP(=O)(/C=C/n1ccc(=O)[nH]c1=O)OCC	OVCAR-3	GI50	> 100 µM (inactive)
CC(C)=CC(O)C(C(O)CCC1(C)OCCO1)S(=O)(=O)c1ccccc1 (stereo not drawn)	OVCAR-3	GI50	> 100 µM (inactive)
O=C1CCC2(c3ccc(Cl)cc3)Nc3ncncc3N12 (stereo not drawn)	OVCAR-3	GI50	> 10 µM (inactive)
COc1ccc(/C=C2\CC3C4CC=C5C[C@@H](O)CC[C@]5(C)C4CC[C@]3(C)C2=O)cc1OC (stereo partly drawn)	OVCAR-3	GI50	5.09 µM (inactive)
N#CC(=S)Nc1ccc(F)cc1	OVCAR-3	GI50	56.4 µM (inactive)
COc1cc(C2c3cc4c(cc3[C@@H](Oc3ccc(F)cc3)C3COC(=O)[C@H]23)OCO4)cc(OC)c1O (stereo partly drawn)	OVCAR-3	GI50	1.75 µM (inactive)
CCC(C)C(NC(=O)C1CCCN1C(=O)C(CC(C)C)NC(=O)C(CC(C)C)NC(=O)C(N)CC(C)C)C(=O)NC(C(=O)NCC(=O)NC(CC(N)=O)C(=O)NC(CC(C)C)C(=O)NC(CC(C)C)C(=O)NC(CC(C)C)C(N)=O)C(C)C (stereo not drawn) (H-LLLPIVGNLLL-NH2; configuration not given here)	OVCAR-3	GI50	> 50 µM (inactive)

====

System: M14
methodNotes: NCI tumour cell line growth inhibition, 48 h
The source made the active and inactive calls. Cut-off read from the data, not from the text of the source: active = GI50 up to about 1.1 µM and inactive = higher.
quantity: GI50

                                    compound                result
 0  CC1=CCCC2C(C=O)(C1)CC(C)C2(CO)CC/C(=C/CO)CO (stereo not drawn)   > 100 µM (inactive)
 1  Nc1nc(Cl)cc(NCC2(CO)CC(c3ccccc3)C2)n1 (stereo not drawn)    34.6 µM (inactive)
 2  CC1=C(CC2C(=O)N(c3ccccc3)S(=O)(=O)NC2C)C(=O)N(c2ccccc2)S(=O)(=O)N1C (stereo not drawn)   > 100 µM (inactive)
 3  CC12CCC([C@H](C(O)C3CCCCC3)C1=O)C2(C)C (stereo partly drawn)   > 100 µM (inactive)
 4  CCOC(=O)Cc1c(C)c2ccc(OC(C)=O)c(OC(C)=O)c2oc1=O    17.9 µM (inactive)
 5  CCOC(=O)c1oc2cc3c(c4c2c1-c1ccccc1N4C)C=CC(C)(C)O3    40.2 µM (inactive)
 6  CC(C)CC(N/C=C1/N=C(c2ccccc2)OC1=O)C(=O)O (stereo not drawn)   > 100 µM (inactive)
 7  O=C(CC(=O)Nc1ccccc1Cl)NNC(c1cc(/N=N/c2ccc(Br)cc2)ccc1O)P(O)O (stereo not drawn)      0.61 µM (active)
 8  COC(=O)c1s/c(=N\C(=S)N(C)C)n(-c2ccccc2)c1C(=O)OC   > 100 µM (inactive)
 9  O=C1NC(=O)C(c2c[nH]c3ccccc23)=C1c1cnc[nH]1   > 100 µM (inactive)
10  CC1(O)CC2C(CC1SCCO)C2(C)C (stereo not drawn)   > 100 µM (inactive)
11  NC(CCCCNCc1ccccc1)C(=O)O (stereo not drawn)   > 100 µM (inactive)
12               CC(=O)c1cc2sc3ccccc3c2[nH]1   > 100 µM (inactive)
13      c1ccc(OCCSCCCCCCCCCCSCCOc2ccccc2)cc1   > 100 µM (inactive)
14  O=C(c1cccc2ccccc12)C1S(=O)(=O)OCCOS1(=O)=O   > 100 µM (inactive)
15  CC1=NN(C(=O)c2ccccc2O)C(=O)/C1=C/c1ccc(O)cc1     0.351 µM (active)
16  Cc1ccc(C)n1-c1ccccc1C1C=Cn2c3c1c(=O)c(OC(C)C)c(OC(C)C)c-3n[nH]c2=O (stereo not drawn)    25.1 µM (inactive)
17  COc1ccc(-c2nc(-c3cnccn3)n(Cc3ccccc3)n2)cc1   > 100 µM (inactive)
18  CC(=O)OC1/C(=C/c2ccc([N+](=O)[O-])cc2)C[C@H]2[C@@H]3CC=C4C[C@@H](OC(C)=O)CC[C@]4(C)[C@H]3CC[C@]12C (stereo partly drawn)   > 100 µM (inactive)
19  N/C(=N\c1c([N+](=O)[O-])cnc2ccccc12)N1CCOCC1   > 100 µM (inactive)
20  O=C(NNc1ccc([N+](=O)[O-])cc1)C1OC(CO)C(O)C1O (stereo not drawn)   > 100 µM (inactive)
21                    O=c1cnnc2sc(=S)[nH]n12    84.1 µM (inactive)
22  CC(=O)C1C(=O)C(=O)N(c2ccc(Cl)cc2C)C1=O (stereo not drawn)   > 100 µM (inactive)
23  C=CCN1C(N)=C(C#N)C(C#N)(C#N)C1CCC (stereo not drawn)   > 100 µM (inactive)
24  COc1cc2c(c(OC)c1OC)-c1ccc(SC)c(=O)cc1[C@@H](NC(=O)c1ccc(F)cc1)CC2    0.0378 µM (active)
25  Cc1ccc(/C=C2\Cc3c(C)cc(C)cc3C2=O)c(C(=O)O)c1   > 100 µM (inactive)
26  C/C(=N\NC(=O)c1ccncc1)c1sc(-n2nc(-c3ccccc3)cc2-c2ccccc2)nc1C  > 31.6 µM (inactive)
27         O=C(O)CCCCCCC[C@H]1S[C@H]1CCCCCCO   > 100 µM (inactive)
28       COc1ccc(Nc2nc3ccccc3nc2C(=O)O)cc1OC   > 100 µM (inactive)
29  O=C1O/C(=C\c2ccc(O)cc2)C(c2ccc(O)c(Cl)c2)=C1Br    13.6 µM (inactive)
30  CCCCCCCCCCCCOCCOCCOCCOCCOCCOCC(=O)NC(Cc1ccccc1)C(=O)Oc1ccc([N+](=O)[O-])cc1 (stereo not drawn)    31.5 µM (inactive)
31  O=C(CCC(=O)OCC1OC(O)(CC2OC(CO)C(O)C(O)C2O)C(O)C1O)OCc1ccccc1 (stereo not drawn)   > 100 µM (inactive)
32  c1cc(-c2ccc(-c3ccc(C4=NC5CCCCC5N4)cc3)o2)ccc1C1=NC2CCCCC2N1 (stereo not drawn)    1.64 µM (inactive)
33  C=C1c2nc3ccccc3n2C=C(c2ccc(OC)cc2)N1c1ccc(OC)cc1    39.8 µM (inactive)
34  O=C1NC2(CN3CCC2CC3)C(=O)N1CN(Cc1ccccc1)c1ccccc1 (stereo not drawn)    33.7 µM (inactive)
35              Nc1ccc(S(=O)(=O)Nc2nccs2)cc1   > 100 µM (inactive)
36  CCOC(=O)c1[nH]c2ccccc2c1C(=O)C[C@H](NC(=O)C(F)(F)F)C(=O)OC   > 100 µM (inactive)
37              Cc1ccc(S(=O)(=O)OCC(=O)O)cc1   > 100 µM (inactive)
38  COc1ccc(C2ON(c3cccc(C)n3)CC=C2C)cc1 (stereo not drawn)    32.6 µM (inactive)
39         O=C(O)c1ccccc1NCn1c(=S)sc2ccccc21   > 100 µM (inactive)
40  O=C1c2cc(Cl)ccc2-n2c(noc2=O)C2CSCN12 (stereo not drawn)   > 100 µM (inactive)
41  COC(=O)Nc1nc2cc(S(=O)(=O)NC(CC(C)C)C(=O)OC)ccc2[nH]1 (stereo not drawn)     1.8 µM (inactive)
42     CC1(C)CC(=O)C(=CN2C(=O)CNC2=S)C(=O)C1   > 100 µM (inactive)
